biological target: mouse KV1.1 (mKV1.1) channels stably expressed in L929 cells (Mus musculus); construct: expressed in transfected cells; assay: Inhibition of mKV1.1 currents, whole-cell patch clamp; type: cell-based; details: room temperature, 200-ms pulses from -80 mV to 40 mV every 30 s, Hill fit to reduction of peak current at 40 mV, each data point mean of 3–5 determinations
Sequence (P16388 whole entry): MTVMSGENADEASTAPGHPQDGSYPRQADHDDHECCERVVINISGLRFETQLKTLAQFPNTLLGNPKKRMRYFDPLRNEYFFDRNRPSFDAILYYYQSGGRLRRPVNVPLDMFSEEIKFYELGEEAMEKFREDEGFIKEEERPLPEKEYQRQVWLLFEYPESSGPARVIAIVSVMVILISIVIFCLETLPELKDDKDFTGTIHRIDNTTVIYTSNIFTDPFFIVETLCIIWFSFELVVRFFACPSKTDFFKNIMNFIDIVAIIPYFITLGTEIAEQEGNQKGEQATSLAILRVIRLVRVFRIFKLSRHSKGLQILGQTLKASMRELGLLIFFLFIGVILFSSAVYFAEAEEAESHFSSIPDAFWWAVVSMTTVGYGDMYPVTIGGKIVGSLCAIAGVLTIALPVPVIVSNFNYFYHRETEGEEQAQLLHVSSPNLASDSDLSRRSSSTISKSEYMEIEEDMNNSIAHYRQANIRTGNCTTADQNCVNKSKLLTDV
Bridge positions count the residues as written; N and C are the ends. Ends that are not written are not given here.
READOUT NAME: IC50

Indicate its recorded IC50; the sequence in question is EFHHHHHHTIINVKCTSPKQCLPPCKAQFGQSAGAKCMNGKCKCYPH (disulfide 15-37, 21-42, 25-44) [rMgTx, recombinant margatoxin]
396 pM
